experimental-system: T1, Bfl-1, Q16548
T1 chain: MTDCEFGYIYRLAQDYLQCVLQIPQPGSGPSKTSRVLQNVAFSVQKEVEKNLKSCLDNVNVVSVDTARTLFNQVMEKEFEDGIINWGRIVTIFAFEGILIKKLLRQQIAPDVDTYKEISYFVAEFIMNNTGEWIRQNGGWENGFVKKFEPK
procedure-text: fluorescence polarisation, direct titration of receptor into 10 nM labelled peptide
pKd: −log10 of the molar value.
endpoint-name: pKd

1. FKAWGKFGGAFCRYADEMKEIQERQR [PURB] = < 5.33
2. TVATRRLSGFLRTLADRLEGTKELLS [MINA] = 5.95
3. TRRSMVFARHLREVGDEFRSRHLNST [POFUT2] = < 5.64
4. PAKKMTLSEIYRWICDNFPYYKNAGI [FOXJ2] = < 5.47

Source of measurements: paper PMC4072508
